Items are presented alongside their recorded Minimum inhibitory concentrations, MDR S. aureus.
System: MDR S. aureus
Assay: microbe, parasite or virus in culture
Details: CLSI broth microdilution; CAMHB with 50 mg/L Ca2+, 10 mg/L Mg2+; 5 × 10^5 CFU/ml; 18 h 37 °C; triplicate; strain KCCM 40510
Description: MDR Pseudomonas aeruginosa (CCARM 2180) was purchased from the Culture Collection of Antimicrobial Resistance Microbes (Seoul, Republic of Korea). […] To assess antimicrobial activity, the MIC50 and MIC90 were measured using broth microdilution following CLSI guidelines. […] MICs in albumin and acetic acid solutions were measured using the same protocol but with 0.2% bovine serum albumin (Bovogen, Keilor, Australia), 0.01% acetic acid (Merck, New Jersey, USA), and CAMHB with both calcium and magnesium. […]
Square brackets hold non-standard residues; d marks the D form. Peptide text beside a SMILES is read from it.
READOUT NAME: Minimum inhibitory concentrations, MDR S. aureus

- MOLECULE: "CC[C@@H](C)[C@@H](NC(=O)[C@@H](Cc1c[nH]c2ccccc12)NC(=O)[C@@H](CCCNC(=N)N)NC(=O)[C@H](N)CCCNC(=N)N)C(=O)N[C@H](Cc1c[nH]c2ccccc12)C(=O)N[C@@H](C(=O)N[C@@H](C(=O)N[C@H](Cc1c[nH]c2ccccc12)C(=O)N[C@H](CCCNC(=N)N)C(N)=O)[C@H](C)CC)C(C)C [WCopW54] (H-[dR][dR][dW][dI][dW][dV][dI][dW][dR]-NH2)"
  VALUE MEASURED: "0.63 µM"
- MOLECULE: "CC(C)[C@@H](NC(=O)[C@H](N)Cc1c[nH]c2ccccc12)C(=O)N[C@@H](C(=O)N[C@@H](C(=O)N[C@@H](C(=O)N[C@H](Cc1c[nH]c2ccccc12)C(=O)N[C@H](CCCNC(=N)N)C(=O)N[C@H](CCCNC(=N)N)C(=O)N[C@H](CCCNC(=N)N)C(N)=O)C(C)C)C(C)C)C(C)C [WCopW44] (H-[dW][dV][dV][dV][dV][dW][dR][dR][dR]-NH2)"
  VALUE MEASURED: "1.25 µM"
- MOLECULE: "CC[C@@H](C)[C@@H](NC(=O)[C@@H](Cc1c[nH]c2ccccc12)NC(=O)[C@H](NC(=O)[C@@H](CC(C)C)NC(=O)[C@H](N)Cc1c[nH]c2ccccc12)C(C)C)C(=O)NCC(=O)N[C@H](CC(C)C)C(=O)N[C@H](CCCNC(=N)N)C(=O)N[C@H](CCCCN)C(=O)N[C@H](CCCCN)C(=O)N[C@H](CCCNC(=N)N)C(N)=O [WCopWV] (H-[dW][dL][dV][dW][dI]G[dL][dR][dK][dK][dR]-NH2)"
  VALUE MEASURED: "2.5 µM"
- MOLECULE: "CC[C@@H](C)[C@@H](NC(=O)[C@@H](Cc1c[nH]c2ccccc12)NC(=O)[C@@H](CC(C)C)NC(=O)[C@H](N)CC(C)C)C(=O)NCC(=O)N[C@H](CC(C)C)C(=O)N[C@H](CCCNC(=N)N)C(=O)N[C@H](CCCCN)C(=O)N[C@H](CCCCN)C(=O)N[C@H](CCCNC(=N)N)C(N)=O [WCopW13] (H-[dL][dL][dW][dI]G[dL][dR][dK][dK][dR]-NH2)"
  VALUE MEASURED: "> 20 µM"

* * *

Tested on: human red blood cells
Experiment: Hemolytic activity
Type: cell-based
Details: red cells of human, 18 h, 25
Square brackets hold non-standard residues; d marks the D form. Peptide text beside a SMILES is read from it.
Items are presented alongside their recorded Hemolysis percent, 25 μM.
READOUT NAME: Hemolysis percent, 25 μM (%)

- COMPOUND: "CC[C@@H](C)[C@@H](NC(=O)[C@@H](Cc1c[nH]c2ccccc12)NC(=O)[C@H](NC(=O)[C@@H](CC(C)C)NC(=O)[C@H](N)Cc1c[nH]c2ccccc12)C(C)C)C(=O)N[C@H](Cc1c[nH]c2ccccc12)C(=O)N[C@H](CCCNC(=N)N)C(=O)N[C@H](CCCNC(=N)N)C(N)=O [WCopW32] (H-[dW][dL][dV][dW][dI][dW][dR][dR]-NH2)"
  VALUE MEASURED: 1.66
- COMPOUND: "CCCCCCCCCC(=O)N[C@@H](Cc1c[nH]c2ccccc12)C(=O)N[C@H](CC(N)=O)C(=O)N[C@@H](CC(=O)O)C(=O)N[C@@H]1C(=O)NCC(=O)N[C@@H](CCCN)C(=O)N[C@@H](CC(=O)O)C(=O)N[C@H](C)C(=O)N[C@@H](CC(=O)O)C(=O)NCC(=O)N[C@H](CO)C(=O)N[C@@H]([C@H](C)CC(=O)O)C(=O)N[C@@H](CC(=O)c2ccccc2N)C(=O)O[C@@H]1C [Daptomycin, reference compound]"
  VALUE MEASURED: 0.01
- COMPOUND: "CC[C@@H](C)[C@@H](NC(=O)[C@@H](CC(C)C)NC(=O)[C@H](N)Cc1c[nH]c2ccccc12)C(=O)N[C@H](Cc1c[nH]c2ccccc12)C(=O)N[C@@H](C(=O)N[C@H](Cc1ccc(O)cc1)C(=O)N[C@H](CCCNC(=N)N)C(=O)N[C@H](CCCCN)C(=O)N[C@H](CCCCN)C(=O)N[C@H](CCCNC(=N)N)C(N)=O)C(C)C [WCopW27] (H-[dW][dL][dI][dW][dV][dY][dR][dK][dK][dR]-NH2)"
  VALUE MEASURED: 1.82
- COMPOUND: "CC(C)C[C@@H](NC(=O)[C@H](N)Cc1c[nH]c2ccccc12)C(=O)N[C@@H](C(=O)N[C@H](Cc1c[nH]c2ccccc12)C(=O)N[C@H](CO)C(=O)N[C@H](Cc1c[nH]c2ccccc12)C(=O)N[C@H](CCCNC(=N)N)C(=O)N[C@H](CCCNC(=N)N)C(=O)N[C@H](CCCNC(=N)N)C(N)=O)C(C)C [WCopW39] (H-[dW][dL][dV][dW][dS][dW][dR][dR][dR]-NH2)"
  VALUE MEASURED: 0.09
- COMPOUND: "CC[C@@H](C)[C@@H](NC(=O)[C@@H](Cc1c[nH]c2ccccc12)NC(=O)[C@@H](CC(C)C)NC(=O)[C@H](N)CC(C)C)C(=O)N[C@H](C)C(=O)N[C@H](CC(C)C)C(=O)N[C@H](CCCCN)C(=O)N[C@H](CCCCN)C(=O)N[C@H](CCCCN)C(=O)N[C@H](CCCCN)C(N)=O [WCopW12] (H-[dL][dL][dW][dI][dA][dL][dK][dK][dK][dK]-NH2)"
  VALUE MEASURED: 0.98

* * *

System: human red blood cells
Assay: Hemolytic activity
Assay type: cell-based
Settings: red cells of human, 18 h, 50
Square brackets hold non-standard residues; d marks the D form. Peptide text beside a SMILES is read from it.
Items are presented alongside their recorded Hemolysis percent, 50 μM.

- MOLECULE: "CC[C@@H](C)[C@@H](NC(=O)[C@@H](Cc1c[nH]c2ccccc12)NC(=O)[C@H](NC(=O)[C@@H](CC(C)C)NC(=O)[C@H](N)Cc1c[nH]c2ccccc12)C(C)C)C(=O)N[C@H](Cc1ccc(O)cc1)C(=O)N[C@H](CC(C)C)C(=O)N[C@H](CCCNC(=N)N)C(=O)N[C@H](CCCCN)C(=O)N[C@H](CCCCN)C(=O)N[C@H](CCCNC(=N)N)C(N)=O [WCopWVY] (H-[dW][dL][dV][dW][dI][dY][dL][dR][dK][dK][dR]-NH2)"
  TEST SYSTEM: "human red blood cells"
  DISPLAY UNIT: "%"
  Hemolysis percent, 50 μM: 4.51
- MOLECULE: "CC(C)C[C@@H](NC(=O)[C@H](N)Cc1c[nH]c2ccccc12)C(=O)N[C@H](CC(C)C)C(=O)N[C@H](Cc1c[nH]c2ccccc12)C(=O)N[C@H](C)C(=O)NCC(=O)N[C@H](C)C(=O)N[C@H](CCCNC(=N)N)C(=O)N[C@H](CCCCN)C(=O)N[C@H](CCCCN)C(=O)N[C@H](CCCNC(=N)N)C(N)=O [WCopW21] (H-[dW][dL][dL][dW][dA]G[dA][dR][dK][dK][dR]-NH2)"
  TEST SYSTEM: "human red blood cells"
  DISPLAY UNIT: "%"
  Hemolysis percent, 50 μM: 1.03
- MOLECULE: "CC[C@@H](C)[C@@H](NC(=O)[C@@H](Cc1c[nH]c2ccccc12)NC(=O)[C@@H](CC(C)C)NC(=O)[C@@H](CC(C)C)NC(=O)[C@H](N)Cc1c[nH]c2ccccc12)C(=O)NCC(=O)N[C@H](CC(C)C)C(=O)N[C@H](CCCNC(=N)N)C(=O)N[C@H](CCCCN)C(=O)N[C@H](CCCCN)C(=O)N[C@H](CCCNC(=N)N)C(N)=O [WCopW5] (H-[dW][dL][dL][dW][dI]G[dL][dR][dK][dK][dR]-NH2)"
  TEST SYSTEM: "human red blood cells"
  DISPLAY UNIT: "%"
  Hemolysis percent, 50 μM: 7.77
